- System: 422866-222-R5-J1-PDC spheroids with HUVEC/MSC, viability;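 further: spheroids exposed to compounds for seven days before reading; percent viability relative to DMSO vehicle control taken as 100%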
- measurement-protocol: Anticancer human tumor 422866-222-R5-J1-PDC patient-derived pancreatic adenocarcinoma cell line growth inhibition [GQUAD]
- condition-summary: second compound 3.16 µM; first compound 0.1 µM; active compounds read low
attribute-measured: viability, T/C (%)

- compound: "COc1ncnc(C2CC2)c1-c1ncc2cnn(Cc3ccc(-c4nc(C(F)(F)F)cn4C(C)C)cc3)c2n1 + Cc1[nH]c2ccc(F)cc2c1-c1nc2c3cccnc3c3ncccc3c2[nH]1"
  attribute-measured: "viability, T/C"
  value-reported: 70.7
- compound: "COc1cccc2c1C(=O)c1c(O)c3c(c(O)c1C2=O)CC(O)(C(=O)CO)CC3OC1CC(N)C(O)C(C)O1 (stereo unspecified) + Cc1[nH]c2ccc(F)cc2c1-c1nc2c3cccnc3c3ncccc3c2[nH]1"
  attribute-measured: "viability, T/C"
  value-reported: 65.6
- compound: "CC(C)n1c(=O)n(C)c2cnc3cc(F)c(-c4ccc(OCCCN5CCCCC5)nc4)cc3c21 + Cc1[nH]c2ccc(F)cc2c1-c1nc2c3cccnc3c3ncccc3c2[nH]1"
  attribute-measured: "viability, T/C"
  value-reported: 88.2
- compound: "Nc1ccn(C2OC(CO)C(O)C2(F)F)c(=O)n1 (stereo unspecified) + Cc1[nH]c2ccc(F)cc2c1-c1nc2c3cccnc3c3ncccc3c2[nH]1"
  attribute-measured: "viability, T/C"
  value-reported: 62.3
- compound: "CC1COCCN1c1cc(-c2ccnn2C)c2ccnc(-c3ccn[nH]3)c2n1 (stereo unspecified) + Cc1[nH]c2ccc(F)cc2c1-c1nc2c3cccnc3c3ncccc3c2[nH]1"
  attribute-measured: "viability, T/C"
  value-reported: 55.9
- compound: "CCCS(=O)(=O)Nc1ccc(F)c(C(=O)c2c[nH]c3ncc(-c4ccc(Cl)cc4)cc23)c1F + CN(C)c1ccc(Nc2c3ccc(NC(=O)CCN4CCCC4)cc3nc3cc(NC(=O)CCN4CCCC4)ccc23)cc1"
  attribute-measured: "viability, T/C"
  value-reported: 97.7
